Overview of reported TGI across a group of compounds:
- Test system: HCT-116 colon
- test.name: NCI tumour cell line growth inhibition, 48 h

// solved cases for TGI follow
[[record]]
compound = "COc1ccc(OC)c(C(=O)c2cccc(C(=O)c3cc(OC)ccc3OC)n2)c1"
reported_metric = "TGI"
reading = "> 100 µM"

[[record]]
compound = "CS(=O)(=O)c1ccc(Oc2cc(F)cc(C#N)c2)c2c1[C@H](O)[C@H](F)[C@H]2F"
reported_metric = "TGI"
reading = "> 100 µM"

[[record]]
compound = "COc1ccc(-c2nn(C(=O)NCCN(C)C)cc2-c2ccncc2)cc1Cl"
reported_metric = "TGI"
reading = "> 100 µM"


Entry CCN(CC)c1ccc(C2=NN(C(C)=O)C(c3cc(OC)c(OC)c(OC)c3)C2)cc1 (stereo unspecified) : TGI on HCT-116 colon = 13 µM

Entry `C(=Nc1ccccc1C1SCCCS1)c1ccccc1` : TGI on HCT-116 colon = > 100 µM

Entry `COc1cc(-c2nc3nc(N4CCN(C)CC4)ccc3[nH]2)c(OC)c2[nH]c(CO)nc12` : TGI on HCT-116 colon = > 100 µM

Entry `O=C(Nn1cc(F)c(=O)[nH]c1=O)C12CC3CC(CC(C3)C1)C2` : TGI on HCT-116 colon = 24.9 µM

Entry `CC(=O)Nc1nc2ncc(C=O)nc2c(=O)[nH]1` : TGI on HCT-116 colon = > 100 µM

====

- System: UACC-62 melanoma
- test.name: NCI tumour cell line growth inhibition, 48 h
reported.metric: TGI

// solved cases for TGI follow
[[record]]
cpd_smiles = "Cc1[nH]c2ccccc2c1-c1n[nH]c(=O)c2ccccc12"
reported_metric = "TGI"
reading = "> 100 µM"

[[record]]
cpd_smiles = "COc1ccc(-c2cc(=O)c3cc(C)cnc3[nH]2)cc1"
reported_metric = "TGI"
reading = "> 100 µM"


Given item `O=[N+]([O-])c1ccc(N/N=C2\C=CCCC2)c([N+](=O)[O-])c1` , the value recorded as its TGI is > 100 µM

====

- Tested on: M14 melanoma
Hi there, use one of these labels in your reply, thanks! active, inactive

Solved entries:
[[record]]
molecule = "CCOC(=O)C1=C(C)N=C2SC=C(c3ccccc3)N2[C@H]1c1cn[nH]c1-c1ccc(Cl)cc1"
cat = "inactive"

[[record]]
molecule = "Nc1ccn(C2OC(CO)C(O)C2(F)F)c(=O)n1 (configuration not stated)"
cat = "active"

[[record]]
molecule = "COc1cc2c(cc1OC)[C@@H]1C(=O)c3cc4c(cc3[C@@H]1N(CCN(C)C)C2=O)OCO4"
cat = "active"

[[record]]
molecule = "CS(=O)(=O)Nc1ccc(Nc2c3ccccc3nc3cc([N+](=O)[O-])ccc23)cc1"
cat = "inactive"

[[record]]
molecule = "Nc1ncc(-c2ccc3ncnc(N4CCc5ccc(Cl)cc54)c3c2)cn1"
cat = "inactive"

[[record]]
molecule = "Cc1ccc(C(=Nc2ccccc2)N=P(c2ccccc2)(c2ccccc2)c2ccccc2)cc1"
cat = "inactive"


# next molecule below
Hi, sorry to bother you, what did the test record for `COc1ccc(C(=O)/C=C/c2c(OC)cc(OC)cc2OC)c(OC)c1` ?
inactive

====

- Tested on: UACC-62 melanoma
Hi there, use one of these labels in your reply, thanks! active, inactive

Solved entries:
[[record]]
molecule = "CCN(Cc1cccnc1)c1ccc(CO)c(Cl)c1"
cat = "active"

[[record]]
molecule = "OCc1cn(Cc2ccc(Cl)cc2)c2ccccc12"
cat = "active"

[[record]]
molecule = "OCCCc1n(Cc2ccc3ccccc3c2)c2ccccc2[n+]1Cc1ccc2ccccc2c1"
cat = "inactive"

[[record]]
molecule = "COc1ccc(C(=O)/C=C/c2c(OC)cc(OC)cc2OC)c(OC)c1"
cat = "inactive"

[[record]]
molecule = "Nc1ccn(C2OC(CO)C(O)C2(F)F)c(=O)n1 (configuration not stated)"
cat = "active"


Hi, sorry to bother you, what did the test record for `COc1cccc(C(=O)c2sc(Nc3ccc(N4CCN(C(C)C)CC4)cc3)nc2N)c1` ?
inactive

Hi, sorry to bother you, what did the test record for CCN(CC)c1ccc(C2=NN(C(C)=O)C(c3cc(OC)c(OC)c(OC)c3)C2)cc1 (configuration not stated) ?
active

Hi, sorry to bother you, what did the test record for `c1ccc(CSCCNCCN(CCNCCSCc2ccccc2)CCNCCSCc2ccccc2)cc1` ?
inactive

Hi, sorry to bother you, what did the test record for CC12OC(CC(O)C1O)n1c3ccccc3c3c4c(c5c6ccccc6n2c5c31)C(=O)N(CCN1CCCC1)C4=O (configuration not stated) ?
inactive

Hi, sorry to bother you, what did the test record for `O=C(Cc1csc2nc(-c3ccc(Br)cc3)cn12)N/N=C/c1ccccc1` ?
inactive

Hi, sorry to bother you, what did the test record for CC(C)Cc1ccc(C(C)C(=O)NCc2ccc(Cn3c(=O)sn(CCCCl)c3=O)cc2)cc1 (configuration not stated) ?
inactive

Hi, sorry to bother you, what did the test record for `CCCCCCCCCCCCCCCCSC(=NCC)NCC` ?
inactive

====

- Tested on: NCI-H460 lung
- test.name: NCI tumour cell line growth inhibition, 48 h
Entry flag: Yes if TGI reaches 20 µM; No if it does not.

Solved entries:
[[record]]
compound = "COc1ccc([As]=[As]c2ccc(OC)c(NCS(=O)(=O)O)c2)cc1NCS(=O)(=O)O (stereo not drawn)"
cat = "No"

[[record]]
compound = "NC(=Nc1ccc(S(=O)(=O)Nc2cnc3ccccc3n2)cc1)/N=C(/N)Nc1ccc(Br)cc1"
cat = "Yes"

[[record]]
compound = "CCCCCCCCCc1c(Cl)nc(Cl)nc1Cl"
cat = "Yes"

[[record]]
compound = "NC1CCCCC1"
cat = "Yes"

[[record]]
compound = "COc1ccc(N[C@H]([C@@H](c2ccccc2)S(=O)c2ccc(C)cc2)C(F)(F)F)cc1 (stereo partly drawn)"
cat = "Yes"

[[record]]
compound = "CC(C)Cc1ccc(C(C)C(=O)NCc2ccc(Cn3c(=O)sn(CCCCl)c3=O)cc2)cc1 (stereo not drawn)"
cat = "No"

[[record]]
compound = "CCN(Cc1ccccc1F)c1ccc(CO)c(Cl)c1"
cat = "No"

[[record]]
compound = "CC(C)(c1cn(Cc2ccccc2)c2ccccc12)c1cn(Cc2ccccc2)c2ccccc12"
cat = "Yes"

[[record]]
compound = "CCC(=O)O[C@@H]([C@H](C)[C@H]1OC(CC)=C(C)C(=O)[C@@H]1C)[C@@H](C)C(=O)CC"
cat = "Yes"

[[record]]
compound = "CN[C@H](C)[C@@H](OC)c1ccccc1"
cat = "Yes"


Decide: is the reported value of TGI for `OCCCc1n(Cc2ccc3ccccc3c2)c2ccccc2[n+]1Cc1ccc2ccccc2c1` equal to or greater than 20 µM?
No

====

Overview of reported TGI across a group of molecules:
- Tested on: HS 578T breast
- test.name: NCI tumour cell line growth inhibition, 48 h

// solved cases for TGI follow
[[record]]
molecule = "CC(C)Oc1c(N(Cc2ccccc2)c2ccccc2C2SCCCS2)c(=O)c1=O"
reported_metric = "TGI"
reading = "32.6 µM"

[[record]]
molecule = "CN(C)c1ccc(C2SCC(=O)N2c2nc3cc4sc(N5C(=O)CSC5c5ccc(N(C)C)cc5)nc4cc3s2)cc1 (centres undefined)"
reported_metric = "TGI"
reading = "> 100 µM"

[[record]]
molecule = "N#CC12CC3=C(N=C1NC1=C(CCc4ccccc41)C2)c1ccccc1CC3 (centres undefined)"
reported_metric = "TGI"
reading = "> 34.5 µM"

[[record]]
molecule = "COc1ccc(-n2c(N)c(C#N)c(C#N)c2-c2cccc([N+](=O)[O-])c2)cc1"
reported_metric = "TGI"
reading = "> 100 µM"

[[record]]
molecule = "O=C(c1cc(Cl)ccc1Cl)N1CCN(c2ccc(Cl)c(Cl)c2)CC1"
reported_metric = "TGI"
reading = "> 100 µM"


Shifting focus to the molecule that follows.
Entry `Cc1cc(-c2ccc[nH]2)on1` : TGI on HS 578T breast = > 100 µM

====

- Test system: M14 melanoma
- test.name: NCI tumour cell line growth inhibition, 48 h
reported.metric: TGI

// solved cases for TGI follow
[[record]]
molecule = "CC(C)(C)OC/C=C(\\Br)CO"
reading = "> 100 µM"

[[record]]
molecule = "Cc1cc2c(cc1C)[n+](=O)c(C(=O)C(C)(C)C)c(C(F)(F)F)n2[O-]"
reading = "80.8 µM"


Entry CCN(CC)CCOc1cccc2nc3c(cc12)Cn1c-3cc2c(c1=O)COC(=O)C2(O)CC (centres undefined) : TGI on M14 melanoma = 11.5 µM

Entry `O=C1C(c2ccc([N+](=O)[O-])cc2)=[N+]([O-])c2ccc([N+](=O)[O-])cc21` : TGI on M14 melanoma = > 100 µM

Entry O=C(OCc1ccccc1)N1N=NC2C1C1CC(OCc3ccccc3)(OCc3ccccc3)C2O1 (centres undefined) : TGI on M14 melanoma = > 100 µM

Entry `COC(=O)C1(Cc2ccccc2)Cc2cc3c(cc2C1)CCC3` : TGI on M14 melanoma = > 100 µM

Entry `CCOC(=O)/C(ON)=C(/CC/C(C(=O)OC)=C(\ON)C(=O)OCC)C(=O)OC` : TGI on M14 melanoma = > 100 µM
